Target: D(3) dopamine receptor (Rattus norvegicus, UniProt P19020)
Sequence (P19020 whole entry): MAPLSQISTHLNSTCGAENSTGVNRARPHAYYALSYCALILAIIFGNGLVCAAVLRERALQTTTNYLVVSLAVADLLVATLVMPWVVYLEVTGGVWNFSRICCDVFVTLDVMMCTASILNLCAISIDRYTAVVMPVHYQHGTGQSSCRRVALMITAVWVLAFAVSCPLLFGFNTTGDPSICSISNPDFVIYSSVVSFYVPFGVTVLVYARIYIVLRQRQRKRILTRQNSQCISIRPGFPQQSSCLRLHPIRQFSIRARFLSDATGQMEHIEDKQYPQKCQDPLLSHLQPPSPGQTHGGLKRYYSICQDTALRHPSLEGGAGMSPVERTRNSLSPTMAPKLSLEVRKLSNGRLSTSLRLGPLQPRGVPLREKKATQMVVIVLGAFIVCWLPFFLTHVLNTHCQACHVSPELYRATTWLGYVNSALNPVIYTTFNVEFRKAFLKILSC
MEASUREMENT_TYPE: Ki (nM)
Quick note: give the figure in nM, leave out the unit.

Q: Sample Oc1ccc2c(c1)C[C@@H]1[C@@H](CCCN1CCN1CCN(c3ccccc3)CC1)C2 (racemic) — what was its Ki?
Ans: 419
